study-system: T1, proprotein convertase subtilisin/kexin type 9 (PCSK9) (human, UniProt Q8NBP7 31-692)
T1 construct: His-tagged full-length PCSK9 in TR-FRET and SPR, biotinylated in phage ELISA; secreted protein is autoprocessed (prodomain plus catalytic/CRD chain starting at S153); also called rec.PCSK9; His-PCSK9
T1 sequence (Q8NBP7 other isoform, or with tags, fused parts or gaps limits assumed): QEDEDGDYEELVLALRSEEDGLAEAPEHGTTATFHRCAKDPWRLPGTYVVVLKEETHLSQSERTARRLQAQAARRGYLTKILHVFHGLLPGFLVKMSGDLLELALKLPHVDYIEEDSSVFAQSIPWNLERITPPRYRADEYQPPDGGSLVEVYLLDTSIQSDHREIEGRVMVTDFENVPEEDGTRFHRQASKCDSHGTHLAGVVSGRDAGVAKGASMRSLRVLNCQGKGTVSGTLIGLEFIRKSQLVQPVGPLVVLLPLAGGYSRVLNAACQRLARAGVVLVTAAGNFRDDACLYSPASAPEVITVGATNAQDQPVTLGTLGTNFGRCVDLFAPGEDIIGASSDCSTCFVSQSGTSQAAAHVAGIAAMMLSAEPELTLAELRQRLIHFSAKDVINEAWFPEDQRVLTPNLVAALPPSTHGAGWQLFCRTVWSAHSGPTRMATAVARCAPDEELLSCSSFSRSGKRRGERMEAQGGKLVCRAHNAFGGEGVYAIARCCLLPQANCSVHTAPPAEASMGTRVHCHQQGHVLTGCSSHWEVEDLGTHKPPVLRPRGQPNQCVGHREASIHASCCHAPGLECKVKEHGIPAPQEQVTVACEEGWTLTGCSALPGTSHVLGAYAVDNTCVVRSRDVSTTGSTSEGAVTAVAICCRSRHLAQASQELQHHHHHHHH
experiment-description: phage spot ELISA
Ends that are not written are not given here.
property-measured: ELISA
Answer with a bare number; do not write a unit.

SGDLMPWNLVRIGLLR [SEQ ID NO 389]    3.16

Briefly, ELISA measured for SGCSDLWNLARIYPMC [SEQ ID NO 391] : 0.514

Briefly, ELISA measured for SGGACPWNLERIGLSC [SEQ ID NO 384] : 1.42

Briefly, ELISA measured for SGCFIPWNLQRIGLLC (not fully specified (C-terminus, bridges); cysteine pairing not given here) [SEQ ID NO 383] : 3

Briefly, ELISA measured for SGDFIPWNLVRIGLLR [SEQ ID NO 385] : 0.472

Briefly, ELISA measured for SGACVKPCIAGNIIR [SEQ ID NO 388] : 1.25

Briefly, ELISA measured for SGGSMPWNLERIFALH [SEQ ID NO 390] : 2.74

Briefly, ELISA measured for SGRCLNHLISGNMNSC [SEQ ID NO 387] : 2.62
